Tested on: K. pneumoniae NVT1001 strains with carbapenemase plasmids
assay_name: Etest MIC of β-lactams, OmpK35/36 loss, ΔramR and/or carbapenemase (Table 9)
Type: cell-based, Klebsiella pneumoniae
assay_conditions: Klebsiella pneumoniae, KPC-2 on pACYC177; Δ36 (ΔompK36 mutant)
Quick list: MIC per entry.

Previously resolved entries follow.
C[C@@H](O)[C@H]1C(=O)N2C(C(=O)O)=C(S[C@@H]3CN[C@H](CNS(N)(=O)=O)C3)[C@H](C)[C@H]12: > 32 µg/mL
CO/N=C(\C(=O)N[C@@H]1C(=O)N2C(C(=O)O)=C(COC(N)=O)CS[C@H]12)c1ccco1: > 256 µg/mL

Any idea what its MIC is? The molecule is C[C@@H](O)[C@H]1C(=O)N2C(C(=O)O)=C(S[C@@H]3CN[C@H](C(=O)N(C)C)C3)[C@H](C)[C@H]12
> 32 µg/mL

And the next one, CCO/N=C(\C(=O)N[C@@H]1C(=O)N2C(C(=O)[O-])=C(Sc3nc(-c4cc[n+](C)cc4)cs3)CS[C@H]12)c1nsc(N)n1 ?
> 256 µg/mL

And the next one, C[C@@H](O)[C@H]1C(=O)N2C(C(=O)O)=C(SCCN=CN)C[C@H]12 ?
> 32 µg/mL

And the next one, CC(=O)OCC1=C(C(=O)O)N2C(=O)[C@@H](NC(=O)Cc3cccs3)[C@H]2SC1 ?
> 256 µg/mL

---

Quick list: MIC per entry.
Test system: K. pneumoniae NVT1001 and its ΔompK35/36 and/or ΔramR mutants
assay_name: Etest MIC, OmpK35/36 loss and AcrAB-TolC overexpression (ΔramR) strains (Table 6)
Assay type: cell-based, Klebsiella pneumoniae
assay_conditions: Klebsiella pneumoniae, WT, NVT1001, read-out: MIC
Expressed in µg/mL, but write only the number.

Previously resolved entries follow.
C[C@@H](O)[C@H]1C(=O)N2C(C(=O)O)=C(S[C@@H]3CN[C@H](C(=O)Nc4cccc(C(=O)O)c4)C3)[C@H](C)[C@H]12: 0.015
CO/N=C(\C(=O)N[C@@H]1C(=O)N2C(C(=O)O)=C(COC(N)=O)CS[C@H]12)c1ccco1: 4

Any idea what its MIC is? The compound is O=C1CN(/N=C/c2ccc([N+](=O)[O-])o2)C(=O)N1
64

And the next one, NC[C@H]1O[C@H](O[C@H]2[C@H](O)[C@@H](O[C@H]3O[C@H](CO)[C@@H](O)[C@H](N)[C@H]3O)[C@H](N)C[C@@H]2N)[C@H](N)C[C@@H]1O ?
0.5

---

Test system: K. pneumoniae NVT1001 strains with carbapenemase plasmids
assay_name: Etest MIC of β-lactams, OmpK35/36 loss, ΔramR and/or carbapenemase (Table 9)
Type: cell-based, Klebsiella pneumoniae
assay_conditions: Klebsiella pneumoniae, KPC-2 on pACYC177; Δ35 (ΔompK35 mutant)
endpoint_name: MIC

Recorded MIC for CO/N=C(\C(=O)N[C@@H]1C(=O)N2C(C(=O)O)=C(COC(N)=O)CS[C@H]12)c1ccco1 with K. pneumoniae NVT1001 strains with carbapenemase plasmids, please?
> 256 µg/mL

And the next one, C[C@@H](O)[C@H]1C(=O)N2C(C(=O)O)=C(SCCN=CN)C[C@H]12 ?
> 32 µg/mL

And the next one, C[C@H]1[C@H](NC(=O)/C(=N\OC(C)(C)C(=O)O)c2csc(N)n2)C(=O)N1S(=O)(=O)O ?
> 256 µg/mL

---

System: K. pneumoniae NVT1001 strains with ESBL or AmpC β-lactamase plasmids
assay_name: Etest MIC of β-lactams, OmpK35/36 loss, ΔramR and/or extended-spectrum β-lactamase and AmpC β-lactamase (Table 8)
Format: cell-based, Klebsiella pneumoniae
assay_conditions: Klebsiella pneumoniae, SHV-12 on pACYC177; Δ35/36 (ΔompK35/36 mutant)
endpoint_name: MIC

Previously resolved entries follow.
C[C@H]1[C@H](NC(=O)/C(=N\OC(C)(C)C(=O)O)c2csc(N)n2)C(=O)N1S(=O)(=O)O: > 256 µg/mL
CO/N=C(\C(=O)N[C@@H]1C(=O)N2C(C(=O)O)=C(COC(N)=O)CS[C@H]12)c1ccco1: > 256 µg/mL

Now look at this one.
Any idea what its MIC is? The compound is CC(=O)OCC1=C(C(=O)O)N2C(=O)[C@@H](NC(=O)Cc3cccs3)[C@H]2SC1
> 256 µg/mL

---

Test system: K. pneumoniae NVT1001 strains with ESBL or AmpC β-lactamase plasmids
assay_name: Etest MIC of β-lactams, OmpK35/36 loss, ΔramR and/or extended-spectrum β-lactamase and AmpC β-lactamase (Table 8)
Assay type: cell-based, Klebsiella pneumoniae
assay_conditions: Klebsiella pneumoniae, DHA-1-AmpR on pACYC177; ΔramR mutant
endpoint_name: MIC

Previously resolved entries follow.
CC(=O)OCC1=C(C(=O)O)N2C(=O)[C@@H](NC(=O)Cc3cccs3)[C@H]2SC1: > 256 µg/mL
CO[C@@]1(NC(=O)Cc2cccs2)C(=O)N2C(C(=O)O)=C(COC(N)=O)CS[C@@H]21: > 256 µg/mL

Any idea what its MIC is? The compound is CO/N=C(\C(=O)N[C@@H]1C(=O)N2C(C(=O)O)=C(COC(N)=O)CS[C@H]12)c1ccco1
> 256 µg/mL

---

System: K. pneumoniae NVT1001 strains with carbapenemase plasmids
assay_name: Etest MIC of β-lactams, OmpK35/36 loss, ΔramR and/or carbapenemase (Table 9)
Format: cell-based, Klebsiella pneumoniae
assay_conditions: Klebsiella pneumoniae, KPC-3 on pACYC177; Δ35 (ΔompK35 mutant)
Description: DNA fragments of the resistance genes along with their flanking regions were amplified from clinical plasmids via PCR with specific primer pairs. The resulting PCR fragments were digested and then cloned into the plasmid pACYC177 or pACYC184. The resulting plasmids were then transformed into K. pneumoniae strain NVT1001 via electroporation. […] The MICs of antibiotics were determined using the Etest (Biodisk AB, Sweden) according to the manufacturer's instructions. […]
endpoint_name: MIC

CC(C)(O/N=C(\C(=O)N[C@@H]1C(=O)N2C(C(=O)[O-])=C(C[n+]3ccccc3)CS[C@H]12)c1csc(N)n1)C(=O)O [Ceftazidime]: > 256 µg/mL
C[C@H]1[C@H](NC(=O)/C(=N\OC(C)(C)C(=O)O)c2csc(N)n2)C(=O)N1S(=O)(=O)O [Aztreonam]: > 256 µg/mL

Any idea what its MIC is? The compound is C[C@@H](O)[C@H]1C(=O)N2C(C(=O)O)=C(SCCN=CN)C[C@H]12 [Imipenem]
> 32 µg/mL

---

Test system: K. pneumoniae NVT1001 strains with carbapenemase plasmids
assay_name: Etest MIC of β-lactams, OmpK35/36 loss, ΔramR and/or carbapenemase (Table 9)
Format: cell-based, Klebsiella pneumoniae
assay_conditions: Klebsiella pneumoniae, KPC-2 on pACYC177; Δ35 (ΔompK35 mutant)
endpoint_name: MIC

Previously resolved entries follow.
CCO/N=C(\C(=O)N[C@@H]1C(=O)N2C(C(=O)[O-])=C(Sc3nc(-c4cc[n+](C)cc4)cs3)CS[C@H]12)c1nsc(N)n1: > 256 µg/mL
C[C@@H](O)[C@H]1C(=O)N2C(C(=O)O)=C(S[C@@H]3CN[C@H](C(=O)N(C)C)C3)[C@H](C)[C@H]12: > 32 µg/mL

Any idea what its MIC is? The molecule is CC(=O)OCC1=C(C(=O)O)N2C(=O)[C@@H](NC(=O)Cc3cccs3)[C@H]2SC1
> 256 µg/mL

---

System: K. pneumoniae NVT1001 strains with carbapenemase plasmids
assay_name: Etest MIC of β-lactams, OmpK35/36 loss, ΔramR and/or carbapenemase (Table 9)
Assay type: cell-based, Klebsiella pneumoniae
assay_conditions: Klebsiella pneumoniae, KPC-3 on pACYC177; WT (NVT1001); read-out: MIC
Quick list: MIC per entry.

Previously resolved entries follow.
CO/N=C(\C(=O)N[C@@H]1C(=O)N2C(C(=O)O)=C(COC(N)=O)CS[C@H]12)c1ccco1 [Cefuroxime]: > 256 µg/mL
CC(=O)OCC1=C(C(=O)O)N2C(=O)[C@@H](NC(=O)Cc3cccs3)[C@H]2SC1 [Cephalothin]: > 256 µg/mL

Now look at this one.
Any idea what its MIC is? The molecule is C[C@H]1[C@H](NC(=O)/C(=N\OC(C)(C)C(=O)O)c2csc(N)n2)C(=O)N1S(=O)(=O)O [Aztreonam]
> 256 µg/mL

---

Tested on: A. baumannii KW1 strains with β-lactamase plasmids
assay_name: Etest MIC of β-lactams, extended-spectrum β-lactamase, AmpC β-lactamase or carbapenemase (Table 18)
Format: cell-based, Acinetobacter baumannii
assay_conditions: KW1 with ADC-30 on pYMAb5
endpoint_name: MIC

Previously resolved entries follow.
CCN1CCN(C(=O)N[C@@H](C(=O)N[C@@H]2C(=O)N3[C@@H]2SC(C)(C)[C@@H]3C(=O)O)c2ccccc2)C(=O)C1=O: >256 µg/mL
CC(C)(O/N=C(\C(=O)N[C@@H]1C(=O)N2C(C(=O)[O-])=C(C[n+]3ccccc3)CS[C@H]12)c1csc(N)n1)C(=O)O: >256 µg/mL

Now look at this one.
Any idea what its MIC is? The molecule is C[C@@H](O)[C@H]1C(=O)N2C(C(=O)O)=C(S[C@@H]3CN[C@H](C(=O)Nc4cccc(C(=O)O)c4)C3)[C@H](C)[C@H]12
>32 µg/mL
